PROTOCOL: Inhibition of P2Y12 in human platelet rich plasma assessed as reduction in ADP-induced platelet aggregation pre-incubated before ADP addition and measured after 10 mins by Bruker spectrophotometry
Please assign Criterion not met whenever IC50 is at or above 1000 µM, and Criterion met whenever it is below.

Take a look at these entries with their results.
CCn1nnc2c([N+](=O)[O-])cccc21 : Criterion not met
c1ccc2[nH]nnc2c1 : Criterion not met
CCCCCCn1nnc2c([N+](=O)[O-])cccc21 : Criterion not met
CCCCCCn1nc2cccc([N+](=O)[O-])c2n1 : Criterion met
CCCCn1nc2cccc([N+](=O)[O-])c2n1 : Criterion not met
CCCCCCCn1nnc2c([N+](=O)[O-])cccc21 : Criterion met
CCCCCCCCn1nnc2c([N+](=O)[O-])cccc21 : Criterion met
O=[N+]([O-])c1cccc2nn(CCCCl)nc12 : Criterion not met

Asked: Just wondering, is IC50 of Cn1nnc2c([N+](=O)[O-])cccc21 below 1000 µM?
Given back: Criterion not met

Asked: Does the reported IC50 of O=[N+]([O-])c1cccc2c1nnn2Cc1ccccc1 stay below 1000 µM?
Given back: Criterion met

Asked: Dear reviewer, please state whether CCn1nc2cccc([N+](=O)[O-])c2n1 has IC50 strictly beneath 1000 µM.
Given back: Criterion not met

Asked: Does this molecule meet the criterion IC50 < 1000 µM? Cn1nnc2cccc([N+](=O)[O-])c21
Given back: Criterion not met
